Listed here are compounds together with their documented Activity.
- Tested on: Mammaliicoccus sciuri
- MEASUREMENT DESCRIPTION: Antimicrobial activity against mecA-positive Staphylococcus sciuri assessed as resistant isolates
- Type: functional
Write the number in % without appending the unit.

The cases that follow already have their Activity on record.
>  <STRUCTURE AS SMILES>
CC[C@H]1OC(=O)[C@H](C)[C@@H](O[C@H]2C[C@@](C)(OC)[C@@H](O)[C@H](C)O2)[C@H](C)[C@@H](O[C@@H]2O[C@H](C)C[C@H](N(C)C)[C@H]2O)[C@](C)(O)C[C@@H](C)C(=O)[C@H](C)[C@@H](O)[C@]1(C)O

>  <RESULT NUMBER>
0

$$$$
>  <STRUCTURE AS SMILES>
CC(=O)O[C@H]1C[C@@]2(C)[C@@H](C[C@@H](O)[C@H]3[C@@]4(C)CC[C@@H](O)[C@@H](C)[C@@H]4CC[C@@]32C)/C1=C(\CCC=C(C)C)C(=O)O

>  <RESULT NUMBER>
60

$$$$

Task: Item CN[C@H](CC(C)C)C(=O)N[C@H]1C(=O)N[C@@H](CC(N)=O)C(=O)N[C@H]2C(=O)N[C@H]3C(=O)N[C@H](C(=O)N[C@H](C(=O)O)c4cc(O)cc(O)c4-c4cc3ccc4O)[C@H](O)c3ccc(c(Cl)c3)Oc3cc2cc(c3O[C@@H]2O[C@H](CO)[C@@H](O)[C@H](O)[C@H]2O[C@H]2C[C@](C)(N)[C@H](O)[C@H](C)O2)Oc2ccc(cc2Cl)[C@H]1O with Mammaliicoccus sciuri - Activity?
Output: 0

###

- Test system: Mammaliicoccus sciuri
- MEASUREMENT DESCRIPTION: Antimicrobial activity against mecA-positive Staphylococcus sciuri assessed as resistant isolates
- Type: functional
MEASURED QUANTITY: Activity (%)
Lab book: enter the figure in %, no units written.

>  <MOLECULE>
CN(C)[C@@H]1C(O)=C(C(N)=O)C(=O)[C@@]2(O)C(O)=C3C(=O)c4c(O)cccc4[C@@](C)(O)[C@H]3C[C@@H]12 [TETRACYCLINE]

>  <Activity, %>
5

$$$$
>  <MOLECULE>
CO[C@H]1/C=C/O[C@@]2(C)Oc3c(C)c(O)c4c(O)c(c(/C=N/N5CCN(C)CC5)c(O)c4c3C2=O)NC(=O)/C(C)=C\C=C\[C@H](C)[C@H](O)[C@@H](C)[C@@H](O)[C@@H](C)[C@H](OC(C)=O)[C@@H]1C [RIFAMPIN]

>  <Activity, %>
0

$$$$

Task: Quick check: Activity of CCn1cc(C(=O)O)c(=O)c2cc(F)c(N3CCNCC3)cc21 [NORFLOXACIN] ?
Output: 0

###

- System: Mammaliicoccus sciuri
- MEASUREMENT DESCRIPTION: Antimicrobial activity against mecA-deficient Staphylococcus sciuri assessed as resistant isolates
- Assay type: functional
MEASURED QUANTITY: Activity
Give the value; after it, write the unit.

Task: Given the compound CN(C)[C@@H]1C(O)=C(C(N)=O)C(=O)[C@@]2(O)C(O)=C3C(=O)c4c(O)cccc4[C@@](C)(O)[C@H]3C[C@@H]12 [TETRACYCLINE] , what is its reported Activity?
Output: 11.1%

Task: Next compound up: CO[C@H]1/C=C/O[C@@]2(C)Oc3c(C)c(O)c4c(O)c(c(/C=N/N5CCN(C)CC5)c(O)c4c3C2=O)NC(=O)/C(C)=C\C=C\[C@H](C)[C@H](O)[C@@H](C)[C@@H](O)[C@@H](C)[C@H](OC(C)=O)[C@@H]1C [RIFAMPIN]
Output: 0%

Task: Then this compound: CC(=O)O[C@H]1C[C@@]2(C)[C@@H](C[C@@H](O)[C@H]3[C@@]4(C)CC[C@@H](O)[C@@H](C)[C@@H]4CC[C@@]32C)/C1=C(\CCC=C(C)C)C(=O)O [FUSIDIC ACID]
Output: 55.6%

Task: CN[C@H](CC(C)C)C(=O)N[C@H]1C(=O)N[C@@H](CC(N)=O)C(=O)N[C@H]2C(=O)N[C@H]3C(=O)N[C@H](C(=O)N[C@H](C(=O)O)c4cc(O)cc(O)c4-c4cc3ccc4O)[C@H](O)c3ccc(c(Cl)c3)Oc3cc2cc(c3O[C@@H]2O[C@H](CO)[C@@H](O)[C@H](O)[C@H]2O[C@H]2C[C@](C)(N)[C@H](O)[C@H](C)O2)Oc2ccc(cc2Cl)[C@H]1O [VANCOMYCIN] ?
Output: 0%

Task: Another compound to look at: CC[C@H]1OC(=O)[C@H](C)[C@@H](O[C@H]2C[C@@](C)(OC)[C@@H](O)[C@H](C)O2)[C@H](C)[C@@H](O[C@@H]2O[C@H](C)C[C@H](N(C)C)[C@H]2O)[C@](C)(O)C[C@@H](C)C(=O)[C@H](C)[C@@H](O)[C@]1(C)O [ERYTHROMYCIN]
Output: 0%

Task: And then CCn1cc(C(=O)O)c(=O)c2cc(F)c(N3CCNCC3)cc21 [NORFLOXACIN] , what is it?
Output: 0%

Value source: ChEMBL document CHEMBL1671763
